MEASUREMENT_PROTOCOL: Half life stability of compound was evaluated in rat plasma
Assay type: ADME, organism-based
Below: a set of entries, each annotated with reported half-life.
Entry rule: numbers only, all in h.

| SMILES | half-life / h |
| --- | --- |
| CC(=O)N1CSC[C@@H]1C(=O)N[C@@H](Cc1ccc(OC(=O)C23CC4CC(CC(C4)C2)C3)cc1)C(=O)O | 2.3 |

Recorded half-life for CC(=O)N1CSC[C@@H]1C(=O)N[C@@H](Cc1ccc(OC(=O)c2ccccc2)cc1)C(=O)O , please?
1.6

* * *

TARGET_DESC: Integrin alpha-IIb/beta-3 (Homo sapiens, UniProt P05106+P08514)
Sequence (P05106 27-788 limits assumed): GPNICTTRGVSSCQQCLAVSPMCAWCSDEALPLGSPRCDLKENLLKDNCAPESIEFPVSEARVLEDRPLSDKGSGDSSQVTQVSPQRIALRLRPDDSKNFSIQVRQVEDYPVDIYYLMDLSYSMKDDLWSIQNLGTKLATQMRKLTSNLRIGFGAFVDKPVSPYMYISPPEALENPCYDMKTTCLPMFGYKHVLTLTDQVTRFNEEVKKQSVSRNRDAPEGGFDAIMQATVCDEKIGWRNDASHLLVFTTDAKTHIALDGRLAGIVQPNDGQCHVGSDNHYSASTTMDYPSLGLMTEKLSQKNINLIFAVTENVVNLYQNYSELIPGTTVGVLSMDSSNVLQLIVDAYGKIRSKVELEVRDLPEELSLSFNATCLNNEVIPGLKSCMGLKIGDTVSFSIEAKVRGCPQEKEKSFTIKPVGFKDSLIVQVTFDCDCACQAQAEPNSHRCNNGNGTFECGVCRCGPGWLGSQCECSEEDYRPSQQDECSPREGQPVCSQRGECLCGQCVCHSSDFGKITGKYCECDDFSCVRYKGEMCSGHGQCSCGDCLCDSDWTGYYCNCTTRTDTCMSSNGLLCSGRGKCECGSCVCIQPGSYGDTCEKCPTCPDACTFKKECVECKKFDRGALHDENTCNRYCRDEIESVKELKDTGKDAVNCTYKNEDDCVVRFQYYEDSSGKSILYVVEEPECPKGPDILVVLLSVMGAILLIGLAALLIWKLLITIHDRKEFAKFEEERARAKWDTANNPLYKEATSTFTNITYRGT
Sequence (P08514 32-887 limits assumed): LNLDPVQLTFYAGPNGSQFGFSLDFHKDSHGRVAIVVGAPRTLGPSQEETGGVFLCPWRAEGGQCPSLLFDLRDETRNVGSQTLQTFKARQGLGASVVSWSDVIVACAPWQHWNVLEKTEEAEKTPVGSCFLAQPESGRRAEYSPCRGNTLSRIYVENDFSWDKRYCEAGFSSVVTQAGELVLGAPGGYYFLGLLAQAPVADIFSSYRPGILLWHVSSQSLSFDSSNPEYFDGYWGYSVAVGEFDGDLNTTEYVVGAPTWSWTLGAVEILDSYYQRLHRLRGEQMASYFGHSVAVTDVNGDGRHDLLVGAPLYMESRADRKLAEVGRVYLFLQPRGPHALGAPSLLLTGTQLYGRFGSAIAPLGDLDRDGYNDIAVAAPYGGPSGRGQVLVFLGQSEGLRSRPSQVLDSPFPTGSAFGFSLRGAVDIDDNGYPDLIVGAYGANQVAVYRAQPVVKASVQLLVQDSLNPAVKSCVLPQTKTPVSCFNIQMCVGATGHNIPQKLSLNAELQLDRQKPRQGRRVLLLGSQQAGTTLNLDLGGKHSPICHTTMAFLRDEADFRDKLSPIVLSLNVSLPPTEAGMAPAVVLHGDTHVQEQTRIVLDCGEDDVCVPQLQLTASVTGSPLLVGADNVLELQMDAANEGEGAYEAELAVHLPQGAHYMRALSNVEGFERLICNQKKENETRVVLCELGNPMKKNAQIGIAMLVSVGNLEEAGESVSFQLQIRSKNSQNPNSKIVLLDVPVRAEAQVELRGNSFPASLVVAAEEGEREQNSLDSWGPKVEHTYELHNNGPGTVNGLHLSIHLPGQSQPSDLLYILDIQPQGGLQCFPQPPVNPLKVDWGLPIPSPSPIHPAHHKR
Sequence (P08514 891-1039 limits assumed): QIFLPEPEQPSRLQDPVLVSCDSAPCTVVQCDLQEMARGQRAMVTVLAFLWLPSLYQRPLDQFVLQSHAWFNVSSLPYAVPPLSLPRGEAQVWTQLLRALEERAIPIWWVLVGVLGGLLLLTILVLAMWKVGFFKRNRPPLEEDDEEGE
MEASUREMENT_PROTOCOL: The antagonist activity was evaluated by alphaIlb-beta3 cell assay
pIC50: −log10 of the molar value.
QUANTITY_MEASURED: pIC50

Recorded pIC50 for CC(=O)N1CSC[C@@H]1C(=O)N[C@@H](Cc1ccc(OCc2c(Cl)cccc2Cl)cc1)C(=O)O , please?
< 3.40

* * *

TARGET_DESC: Integrin alpha-V/beta-3 (Homo sapiens, UniProt P05106+P06756)
Sequence (P06756 31-889 limits assumed, one chain of several): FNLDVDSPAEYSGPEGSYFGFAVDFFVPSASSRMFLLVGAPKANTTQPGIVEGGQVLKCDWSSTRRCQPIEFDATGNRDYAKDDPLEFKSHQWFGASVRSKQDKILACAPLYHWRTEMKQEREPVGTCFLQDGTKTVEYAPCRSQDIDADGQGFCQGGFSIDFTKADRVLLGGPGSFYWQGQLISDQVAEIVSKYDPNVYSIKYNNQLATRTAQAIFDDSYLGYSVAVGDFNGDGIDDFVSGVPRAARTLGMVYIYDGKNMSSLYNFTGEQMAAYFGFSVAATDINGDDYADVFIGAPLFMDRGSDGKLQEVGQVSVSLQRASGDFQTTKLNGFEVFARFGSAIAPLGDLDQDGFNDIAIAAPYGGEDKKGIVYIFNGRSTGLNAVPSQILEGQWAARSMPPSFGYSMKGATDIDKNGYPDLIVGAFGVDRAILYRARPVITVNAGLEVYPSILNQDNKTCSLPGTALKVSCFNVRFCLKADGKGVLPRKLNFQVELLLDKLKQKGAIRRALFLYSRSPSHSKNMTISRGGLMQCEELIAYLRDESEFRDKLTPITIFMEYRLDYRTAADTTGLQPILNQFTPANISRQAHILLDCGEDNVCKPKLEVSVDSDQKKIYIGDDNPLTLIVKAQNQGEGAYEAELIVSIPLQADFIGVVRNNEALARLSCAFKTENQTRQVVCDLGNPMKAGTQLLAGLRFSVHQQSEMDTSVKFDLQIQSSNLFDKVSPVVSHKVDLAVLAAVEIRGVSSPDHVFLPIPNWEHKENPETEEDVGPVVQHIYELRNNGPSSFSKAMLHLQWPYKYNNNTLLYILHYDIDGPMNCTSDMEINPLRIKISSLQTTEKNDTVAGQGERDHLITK
Sequence (P06756 891-1048 limits assumed, one chain of several): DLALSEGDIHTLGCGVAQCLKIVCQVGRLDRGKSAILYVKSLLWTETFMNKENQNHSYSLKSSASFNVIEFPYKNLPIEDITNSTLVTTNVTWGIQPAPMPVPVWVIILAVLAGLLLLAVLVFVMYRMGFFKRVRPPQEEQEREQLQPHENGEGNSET
MEASUREMENT_PROTOCOL: Inhibition of alphaV-beta3 mediated cell adhesion
Format: protein-complex assay
QUANTITY_MEASURED: IC50

Param readout= IC50; system= Integrin alpha-V/beta-3 (Homo sapiens, UniProt P05106+P06756); entry= CC(=O)N1CSC[C@@H]1C(=O)N[C@@H](Cc1ccc(OCc2c(Cl)cccc2Cl)cc1)C(=O)O ; returns value.
> 800 µM

* * *

TARGET_DESC: Integrin alpha-4/beta-1 (Homo sapiens, UniProt P05556+P13612)
Sequence (P05556 whole entry): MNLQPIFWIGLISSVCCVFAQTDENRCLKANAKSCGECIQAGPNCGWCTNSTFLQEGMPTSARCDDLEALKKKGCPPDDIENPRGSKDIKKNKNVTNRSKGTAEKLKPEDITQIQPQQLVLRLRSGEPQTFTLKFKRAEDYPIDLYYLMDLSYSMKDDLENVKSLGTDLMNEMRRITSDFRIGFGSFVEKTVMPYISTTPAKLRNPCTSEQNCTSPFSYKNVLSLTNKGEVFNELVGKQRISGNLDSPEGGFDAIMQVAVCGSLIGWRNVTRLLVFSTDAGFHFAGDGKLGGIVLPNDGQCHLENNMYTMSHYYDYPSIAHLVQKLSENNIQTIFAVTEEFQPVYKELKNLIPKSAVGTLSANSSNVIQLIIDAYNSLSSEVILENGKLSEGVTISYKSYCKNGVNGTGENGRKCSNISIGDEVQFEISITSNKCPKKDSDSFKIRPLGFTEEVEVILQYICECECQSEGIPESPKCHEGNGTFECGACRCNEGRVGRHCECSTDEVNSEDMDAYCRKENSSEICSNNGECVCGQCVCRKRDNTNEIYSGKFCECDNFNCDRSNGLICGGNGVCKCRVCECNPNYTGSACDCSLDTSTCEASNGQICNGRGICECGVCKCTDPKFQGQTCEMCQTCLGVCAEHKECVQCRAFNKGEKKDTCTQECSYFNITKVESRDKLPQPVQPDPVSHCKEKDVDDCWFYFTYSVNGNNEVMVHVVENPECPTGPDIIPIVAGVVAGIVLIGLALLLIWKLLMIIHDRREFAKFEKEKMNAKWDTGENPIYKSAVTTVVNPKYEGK
Sequence (P13612 whole entry): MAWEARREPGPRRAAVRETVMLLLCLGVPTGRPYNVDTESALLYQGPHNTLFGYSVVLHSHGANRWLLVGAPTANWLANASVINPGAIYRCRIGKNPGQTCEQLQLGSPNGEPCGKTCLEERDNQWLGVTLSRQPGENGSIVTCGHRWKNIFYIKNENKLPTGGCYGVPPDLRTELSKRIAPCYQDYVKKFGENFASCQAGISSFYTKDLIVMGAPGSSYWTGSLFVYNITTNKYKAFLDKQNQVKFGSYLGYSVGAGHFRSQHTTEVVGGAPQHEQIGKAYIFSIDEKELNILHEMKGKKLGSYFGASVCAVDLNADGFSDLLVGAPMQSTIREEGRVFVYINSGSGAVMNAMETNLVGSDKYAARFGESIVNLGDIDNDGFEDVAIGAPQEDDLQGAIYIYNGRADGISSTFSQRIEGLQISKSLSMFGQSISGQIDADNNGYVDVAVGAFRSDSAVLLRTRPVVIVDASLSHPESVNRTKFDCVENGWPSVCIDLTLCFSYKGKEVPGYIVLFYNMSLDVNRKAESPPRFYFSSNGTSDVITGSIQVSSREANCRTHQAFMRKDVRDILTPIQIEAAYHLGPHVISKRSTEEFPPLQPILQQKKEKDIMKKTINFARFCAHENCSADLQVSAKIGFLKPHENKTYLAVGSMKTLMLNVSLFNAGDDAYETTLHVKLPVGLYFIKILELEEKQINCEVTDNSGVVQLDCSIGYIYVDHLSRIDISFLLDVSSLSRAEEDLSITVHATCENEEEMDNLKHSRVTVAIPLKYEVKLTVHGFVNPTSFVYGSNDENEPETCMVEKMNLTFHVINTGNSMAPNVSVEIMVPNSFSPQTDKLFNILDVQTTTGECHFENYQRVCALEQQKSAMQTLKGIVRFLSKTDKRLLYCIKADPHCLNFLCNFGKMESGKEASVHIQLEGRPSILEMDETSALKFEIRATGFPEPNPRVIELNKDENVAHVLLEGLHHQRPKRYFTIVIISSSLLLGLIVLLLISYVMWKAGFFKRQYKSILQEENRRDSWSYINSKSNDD
MEASUREMENT_PROTOCOL: Inhibition of alpha4-beta1 VCAM binding in Jurkat cell adhesion assay
Format: cell-based
pIC50: −log10 of the molar value. Square brackets hold non-standard residues; d marks the D form. Peptide text beside a SMILES is read from it. Thz = O=C(O)[C@@H]1CSCN1
Classification field: enter 1 (yes) for pIC50 values not below 7, 0 (no) for values below it.

| COMPOUND | ASSIGNED_LABEL |
| --- | --- |
| CC(=O)N1CSC[C@@H]1C(=O)N[C@@H](Cc1ccc(OCc2ccccc2C(F)(F)F)cc1)C(=O)O | 0 (no) |
| CC(=O)N1CSC[C@@H]1C(=O)N[C@@H](Cc1ccc(OCc2c(F)cccc2F)cc1)C(=O)O | 1 (yes) |
| CC(=O)N1CSC[C@@H]1C(=O)N[C@@H](Cc1ccc(OCc2c(Cl)cccc2Cl)cc1)C(=O)O | 1 (yes) |
| CC(=O)N1CSC[C@H]1C(=O)N[C@@H](CSCCCNC(=O)C12CC3CC(CC(C3)C1)C2)C(=O)O | 0 (no) |
| CC(=O)N1CSC[C@@H]1C(=O)N[C@@H](Cc1ccc(OC(=O)c2ccccc2)cc1)C(=O)O | 0 (no) |
| CC(=O)N1CSC[C@@H]1C(=O)N[C@@H](Cc1ccc(OCc2c(Cl)cc(Cl)cc2Cl)cc1)C(=O)O | 1 (yes) |
| COc1ccc(C[C@H](NC(=O)[C@@H]2CSCN2C(C)=O)C(=O)O)cc1 (Ac-[Thz]-Tyr(Me)-OH) | 0 (no) |
| CC(=O)N1CSC[C@H]1C(=O)N[C@@H](Cc1ccc(O)cc1)C(=O)O (Ac-[Thz]-Tyr-OH) | 0 (no) |

Determine whether measured pIC50 meets or exceeds 7 for CC(=O)N1CSC[C@@H]1C(=O)N[C@@H](Cc1ccc(OC(=O)c2c(Cl)cccc2Cl)cc1)C(=O)O
1 (yes)

Determine whether measured pIC50 meets or exceeds 7 for COc1cccc(OC)c1COc1ccc(C[C@H](NC(=O)[C@H]2CSCN2C(C)=O)C(=O)O)cc1
1 (yes)

Determine whether measured pIC50 meets or exceeds 7 for CC(=O)N1CSC[C@@H]1C(=O)N[C@@H](Cc1ccc(OCc2ccccc2)cc1)C(=O)O
0 (no)

Determine whether measured pIC50 meets or exceeds 7 for CC(=O)N1CSC[C@H]1C(=O)N[C@@H](Cc1ccc(OCc2ccccc2)cc1)C(=O)O
0 (no)

Determine whether measured pIC50 meets or exceeds 7 for CC(=O)N1CSC[C@H]1C(=O)N[C@@H](Cc1ccccc1)C(=O)O (Ac-[Thz]-Phe-OH)
0 (no)
